- System: MIA PaCa-2 cells
- Test Description: Cellular viability assay (Cell Titer Fluor)
- Assay type: cell-based
- Particulars: Homo sapiens, MIA PaCa-2, 72 h, 72 hours incubation
Observable: IC50

Worked cases, IC50 given:
Record summary for O=C(NCc1n[nH]c(-c2cccs2)n1)c1ccccc1CC(F)(F)F [Compound 8] : reported IC50 = > 10000 nM

Record summary for COc1ccc(F)cc1-c1cc(CNC(=O)c2ccccc2OC(F)(F)F)n[nH]1 [Compound 51] : reported IC50 = < 1000 nM

Record summary for COc1ccc(F)cc1-c1nc(CNC(=O)c2ccc3c(c2)OC(F)(F)O3)n[nH]1 [Compound 119] : reported IC50 = 1000 to 10000 nM

Record summary for COc1c(O)cccc1-c1nc(CNC(=O)c2ccccc2OC(F)F)n[nH]1 [Compound 62] : reported IC50 = 1000 to 10000 nM

Record summary for O=C(NCc1n[nH]c(-c2cccs2)n1)c1ccccc1OC(F)F [Compound 15] : reported IC50 = > 10000 nM

Then this compound:
Record summary for O=C(NCc1n[nH]c(-c2ccccc2O)n1)c1ccccc1OC(F)F [Compound 60] : reported IC50 = < 1000 nM

====

Entries annotated with measured IC50
- System: MIA PaCa-2 cells
- Test Description: Cellular viability assay (Cell Titer Fluor)
- Assay type: cell-based
- Particulars: Homo sapiens, MIA PaCa-2, 72 h, 72 hours incubation

Worked cases, IC50 given:
Record summary for O=C(NCc1cc(-c2cccs2)[nH]n1)c1cc(O)ccc1N1CCCC(F)(F)C1 : reported IC50 = 1000 to 10000 nM

Record summary for COc1ccncc1-c1nc(CNC(=O)c2ccccc2OC(F)(F)F)n[nH]1 : reported IC50 = 1000 to 10000 nM

Record summary for O=C(NCc1cc(-c2cccs2)[nH]n1)c1cccc(C(F)(F)F)c1N1CCCC1 : reported IC50 = 1000 to 10000 nM

Record summary for COc1ccccc1-c1nc(C2(NC(=O)c3ccccc3OC(F)F)CC2)n[nH]1 : reported IC50 = 1000 to 10000 nM

Record summary for COc1ccccc1-c1nc(CNC(=O)c2ccccc2OC(F)(F)F)n[nH]1 : reported IC50 = < 1000 nM

Next:
Record summary for O=C(NCc1cc(-c2cccs2)[nH]n1)c1ccccc1N1CCC(F)(F)CC1 : reported IC50 = < 1000 nM

Record summary for COc1ccc(Cl)cc1-c1cc(CNC(=O)c2ccccc2OC(F)(F)F)n[nH]1 : reported IC50 = 1000 to 10000 nM

Record summary for O=C(NCc1cc(-c2cccc(O)c2O)[nH]n1)c1ccccc1OC(F)(F)F : reported IC50 = > 10000 nM

====

- Tested on: MIA PaCa-2 cells
- Test Description: Cellular viability assay (Cell Titer Fluor)
- Type: cell-based
- Particulars: Homo sapiens, MIA PaCa-2, 72 h, 72 hours incubation
pIC50: −log10 of the molar value.
Observable: pIC50

Worked cases, pIC50 given:
Record summary for COc1ccccc1-c1nc(CNC(=O)c2cc(F)ccc2OC(F)(F)F)n[nH]1 : reported pIC50 = > 6.00

Record summary for O=C(NCc1n[nH]c(-c2cccs2)n1)c1ccccc1NCC(F)F : reported pIC50 = < 5.00

Record summary for O=C(NCc1cc(-c2cccs2)[nH]n1)c1cc(C(F)(F)F)ccc1N1CCCC1 : reported pIC50 = 5.00 to 6.00

Record summary for O=C(NCc1n[nH]c(-c2cc(F)ccc2O)n1)c1ccccc1OC(F)F : reported pIC50 = > 6.00

Then this compound:
Record summary for COc1ccccc1-c1nc(CNC(=O)c2ccccc2OC(F)F)n[nH]1 : reported pIC50 = > 6.00
